Reported Ki by item:
- target.under.test: α1 adrenoceptor
- assay.overview: displacement of ^3 H-prazosin specifically bound in rat brain homogenate (radioligand binding)
- assay.setup: ^3 H Prazosin binding, Ki calculated from IC50, read-out: K1 (nM) ^3 H Prazosin
Counter-ions that a name gives are not always drawn.
readout.kind: Ki

| compound | readout.kind | endpoint.result |
| --- | --- | --- |
| Fc1ccc(-c2nn(Cc3ccccc3)c3c2CN(C2CCCC2)CC3)cc1 [Example 163, hydrochloride] | Ki | 42.4 nM |
| Fc1ccc(-c2nn(Cc3ccc(Cl)cc3)c3c2CNCC3)cc1 [Example 103, hydrochloride] | Ki | 11.1 nM |
| Fc1ccc(Cn2nc(-c3ccc(F)cc3)c3c2CCNC3)cc1 [Example 106] | Ki | 0.331 nM |
| CN1CCc2c(c(-c3ccc(F)cc3)nn2Cc2ccc(F)cc2)C1 [Example 134, hydrochloride] | Ki | 6.35 nM |
| Cc1ccc(-c2nn(Cc3ccccc3)c3c2CN(C)CC3)cc1 [Example 147] | Ki | 20.1 nM |
| CCCCCn1nc(-c2ccc(F)cc2)c2c1CCNC2 [Example 122] | Ki | 8.7 nM |
| Fc1ccc(-c2nn(Cc3ccc(Cl)c(Cl)c3)c3c2CNCC3)cc1 [Example 108, hydrochloride] | Ki | 7.48 nM |
| COc1ccc(Cn2nc(-c3ccc(F)cc3)c3c2CCN(C)C3)cc1 [Example 133, hydrochloride] | Ki | 12.4 nM |

* * *

- target.under.test: α1 adrenoceptor
- assay.overview: displacement of ^3 H-prazosin specifically bound in rat brain homogenate (radioligand binding)
- assay.setup: ^3 H Prazosin binding, Ki calculated from IC50, read-out: K1 (nM) ^3 H Prazosin
Structures can show the parent of a compound that is named as a salt.
Rule: measured Ki below 20 nM gets label 1; anything equal to or greater than 20 nM gets label 0.

| compound | category.label |
| --- | --- |
| CCCn1nc(-c2ccc(F)cc2)c2c1CCNC2 [Example 112] | label 0 |
| Cn1nc(-c2ccccc2)c2c1CCNC2 [Example 96] | label 0 |
| CN1CCc2c(c(-c3ccc(F)cc3)nn2Cc2ccc(Cl)c(Cl)c2)C1 [Example 136] | label 0 |
| CN1CCc2c(c(-c3ccc(Cl)cc3)nn2Cc2ccccc2)C1 [Example 146] | label 0 |
| Fc1ccc(-c2nn(Cc3ccccc3)c3c2CNCC3)cc1 [Example 100, hydrochloride] | label 1 |
| CCCn1nc(-c2ccc(F)cc2)c2c1CCN(C)C2 [Example 140] | label 0 |
| CN1CCc2c(c(-c3ccc(F)cc3)nn2Cc2ccccc2Cl)C1 [Example 142] | label 0 |
| CCCCCn1nc(-c2ccc(F)cc2)c2c1CCN(C)C2 [Example 150] | label 1 |
| CC(C)N1CCc2c(c(-c3ccc(F)cc3)nn2Cc2ccccc2)C1 [Example 162] | label 0 |
| Fc1ccc(-c2nn(CCCc3ccccc3)c3c2CNCC3)cc1 [Example 111] | label 1 |
| Fc1ccc(-c2n[nH]c3c2CNCC3)cc1 [Example 19] | label 0 |
| Clc1ccc(-c2nn(Cc3ccccc3)c3c2CNCC3)cc1 [Example 118, hydrochloride] | label 1 |
| Cc1ccc(-c2n[nH]c3c2CNCC3)cc1 [Example 32, dihydrochloride] | label 0 |
| COc1ccc(Cn2nc(-c3ccc(F)cc3)c3c2CCNC3)cc1 [Example 105, hydrochloride] | label 1 |
| Cc1ccc(-c2nn(Cc3ccccc3)c3c2CNCC3)cc1 [Example 119, hydrochloride] | label 1 |
| CCCCn1nc(-c2ccc(F)cc2)c2c1CCN(C)C2 [Example 141] | label 0 |
| Fc1ccc(-c2nn(Cc3ccccc3Cl)c3c2CNCC3)cc1 [Example 114] | label 1 |
| CN1CCc2c(c(-c3ccc(F)cc3)nn2CCc2ccccc2)C1 [Example 138] | label 0 |
| CC(c1ccccc1)n1nc(-c2ccc(F)cc2)c2c1CCN(C)C2 (stereo not shown) [Example 144, hydrochloride] | label 1 |
